study.target: CSNK1G1 (human) (UniProt Q9HCP0)
Sequence (Q9HCP0 whole entry, looked up): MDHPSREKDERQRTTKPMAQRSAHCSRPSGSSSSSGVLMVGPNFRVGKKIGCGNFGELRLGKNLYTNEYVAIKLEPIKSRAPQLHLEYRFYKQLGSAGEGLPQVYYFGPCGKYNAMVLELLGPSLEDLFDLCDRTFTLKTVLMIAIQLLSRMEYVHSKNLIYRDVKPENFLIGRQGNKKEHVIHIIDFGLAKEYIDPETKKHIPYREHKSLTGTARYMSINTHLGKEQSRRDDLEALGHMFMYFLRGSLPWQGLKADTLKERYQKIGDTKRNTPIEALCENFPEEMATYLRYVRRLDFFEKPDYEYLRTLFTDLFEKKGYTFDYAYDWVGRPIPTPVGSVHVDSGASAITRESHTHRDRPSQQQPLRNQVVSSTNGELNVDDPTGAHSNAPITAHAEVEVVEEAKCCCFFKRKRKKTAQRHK
experiment.description: KINOMEscan competition binding
experimental.parameters: compound 10.0 µM
Labelling: kinase still bound, per cent of control reported below 80% becomes YES; at or above becomes NO.

# chemical.structure, category.label
records = [
    ("Cc1ccc2nc(NCCN)c3ncc(C)n3c2c1", "NO"),
    ("OCCCNc1cc(-c2ccnc(Nc3cccc(Cl)c3)n2)ccn1", "NO"),
    ("CCCS(=O)(=O)Nc1ccc(F)c(C(=O)c2c[nH]c3ncc(-c4ccc(Cl)cc4)cc23)c1F", "NO"),
    ("Nc1ccc(-c2ccc3ncc4ccc(=O)n(-c5cccc(C(F)(F)F)c5)c4c3c2)cn1", "NO"),
    ("C=CC(=O)Nc1cc(NC(=O)c2ccc(C)c(NC(=O)c3ccno3)c2)cc(C(F)(F)F)c1", "NO"),
    ("Cc1ccc(C(=O)Nc2cccc(C(F)(F)F)c2)cc1Nc1cncc(C(N)=O)c1", "NO"),
    ("Cc1ccc(NC(=O)c2cccc(C(C)(C)C#N)c2)cc1Nc1ccc2ncn(C)c(=O)c2c1", "NO"),
    ("N#Cc1c(NC(=O)c2cccc3ccccc23)sc2c1CCCC2", "YES"),
    ("CCN1CCN(Cc2ccc(Nc3ncc4c(n3)N(C)c3ccccc3C(=O)N4C)cc2C(F)(F)F)CC1", "YES"),
    ("O=C(NC1CC1)c1cccc(-c2ccc3c(NC(=O)C4CC4)n[nH]c3c2)c1", "NO"),
    ("O=C1Nc2ccc(I)cc2/C1=C/c1cc(Br)c(O)c(Br)c1", "YES"),
    ("CCC(=O)N1CCN(c2ccc(-n3c(=O)ccc4cnc5ccc(-c6cnc7ccccc7c6)cc5c43)cc2C(F)(F)F)CC1", "NO"),
    ("CN(C)C/C=C/C(=O)Nc1cccc(Nc2ncc3c(n2)N(C)c2ccccc2C(=O)N3C)c1", "YES"),
    ("C=CC(=O)Nc1cccc(Nc2nc(N[C@H]3CC[C@H](N(C)C)CC3)nc3c2ncn3C(C)C)c1", "YES"),
    ("Cc1cc([C@@H](C)Nc2ccccc2C(=O)O)c2nc(N3CCOCC3)cc(=O)n2c1", "YES"),
    ("C[C@@H](Oc1cc(-n2cnc3ccc(CN4CCN(C)CC4)cc32)sc1C(N)=O)c1ccccc1C(F)(F)F", "NO"),
    ("O=C(NOC[C@H](O)CO)c1ccc(F)c(F)c1Nc1ccc(I)cc1F", "YES"),
    ("C=CC(=O)Nc1cccc(Oc2nc(Nc3ccc(N4CCN(C)CC4)cc3OC)ncc2Cl)c1", "NO"),
    ("COc1cc(N2CCN(C)CC2)ccc1Nc1nc(N)c(C(=O)c2c(Cl)cccc2Cl)s1", "NO"),
]
